Test: Protein binding in rat plasma at 10 uM after 4 hrs
Type: ADME, cell-free
Details: read-out: PPB (converted)
Measured endpoint: fraction unbound at 4 h, 10 µM

* CC(=O)CC(c1ccccc1)c1c(O)c2ccccc2oc1=O (configuration not stated) | 0.017

----------
Experiment: Metabolic stability in human plasma assessed as parent compound remaining at 10 uM measured after 30 mins
Format: ADME, cell-free
Settings: read-out: Stabilty
Measured endpoint: remaining at 0.5 h, 10 µM (%)

• CN(C)C(=O)NCCCN(C)C1=Nc2ccccc2C(CC(=O)NCc2ccc(F)cc2)N1c1ccc(C2CCCCC2)cc1 (stereo unspecified) = 113

----------
Experiment: Solubility of the compound at pH 7.4
Type: physicochemical
Settings: buffer
Measured endpoint: solubility

- CN(C)C(=O)NCCCN(C)C1=Nc2ccccc2C(CC(=O)NCc2ccc(F)cc2)N1c1ccc(C2CCCCC2)cc1 (stereo unspecified): < 1000 µg/mL
